Each recorded value in this set is attributed to paper PMC8792325.

assay: Metabolic stability in mouse liver microsomes; format: in vitro ADME; conditions: Half-life T1/2, mouse liver microsomes
Readout name: half-life

Query: So what does the record say about half-life for "O=C(Nc1ccc(F)c(Cl)c1)c1cccc2c1OCCO2" ?
Response: < 10 min

====

system: CYP enzymes (one unnamed isoform of a panel of 9); assay: in vitro; format: in vitro ADME
pIC50: −log10 of the molar value.
Readout name: pIC50

Query: What value of measured pIC50 is listed for O=C1CCN(C(=O)Nc2ccc(F)c(Cl)c2)C2CCCCC12 (stereo not shown) ?
Response: > 5.00
